Please respond with reported pEC50 for every item in the list.
# test target: flTau aggregates (longest isoform of human Tau, 2N4R) (Homo sapiens, UniProt P10636)
# Construct: 35 μM of recombinant full-length (fl) Tau in phosphate-buffered saline (PBS) were aggregated; purchased Biotechne; host or cells: bacteria
# Sequence (P10636 1-441 isoform P10636-8): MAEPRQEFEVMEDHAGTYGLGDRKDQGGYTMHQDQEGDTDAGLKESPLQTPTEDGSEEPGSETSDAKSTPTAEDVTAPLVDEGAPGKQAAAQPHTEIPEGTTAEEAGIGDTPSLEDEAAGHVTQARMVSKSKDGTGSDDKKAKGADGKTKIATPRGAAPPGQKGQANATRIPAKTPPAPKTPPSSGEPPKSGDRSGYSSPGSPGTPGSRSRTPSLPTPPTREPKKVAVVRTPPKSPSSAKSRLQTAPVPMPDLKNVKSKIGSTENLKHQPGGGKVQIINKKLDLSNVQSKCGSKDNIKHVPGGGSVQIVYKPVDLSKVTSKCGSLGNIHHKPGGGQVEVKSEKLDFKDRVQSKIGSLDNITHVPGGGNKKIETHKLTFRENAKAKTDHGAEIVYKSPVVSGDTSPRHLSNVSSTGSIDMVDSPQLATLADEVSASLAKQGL
# assay method text: Full-length Tau (flTau) disaggregation assay by Thioflavin T (ThT)
# Type: biochemical
# condition notes: ThT fluorescence; 60 nM flTau aggregates, 30 minutes at RT; read-out: flTau disaggregation EC50
pEC50: −log10 of the molar value.

Reported pEC50, compound `Cn1nc(C2CCN(c3ccc4oc(N5CCOCC5)nc4c3)CC2)c2cccnc21` : ____ 5.00 to 6.00

Could you tell me which pEC50 is on file for `c1ccc2c(-c3cnn(-c4ccc5oc(N6CCOCC6)nc5c4)c3)c[nH]c2c1` ? > 6.00

Form field: reported pEC50 of `Fc1cnc2[nH]cc(C3CCN(c4ccc5oc(N6CCOCC6)nc5c4)CC3)c2c1` 5.00 to 6.00

Reported pEC50 for `Fc1ccc2c(C3CCN(c4ccc5oc(N6CCOCC6)nc5c4)CC3)n[nH]c2c1` : what is it? 5.00 to 6.00
